Attribution: patent US20260159533A1

# target_desc: human C1s protein (Homo sapiens, UniProt P09871)
# Construct: purchased R&D Systems or Complement Technologies 2060-SE or A104
# Sequence (P09871 16-688): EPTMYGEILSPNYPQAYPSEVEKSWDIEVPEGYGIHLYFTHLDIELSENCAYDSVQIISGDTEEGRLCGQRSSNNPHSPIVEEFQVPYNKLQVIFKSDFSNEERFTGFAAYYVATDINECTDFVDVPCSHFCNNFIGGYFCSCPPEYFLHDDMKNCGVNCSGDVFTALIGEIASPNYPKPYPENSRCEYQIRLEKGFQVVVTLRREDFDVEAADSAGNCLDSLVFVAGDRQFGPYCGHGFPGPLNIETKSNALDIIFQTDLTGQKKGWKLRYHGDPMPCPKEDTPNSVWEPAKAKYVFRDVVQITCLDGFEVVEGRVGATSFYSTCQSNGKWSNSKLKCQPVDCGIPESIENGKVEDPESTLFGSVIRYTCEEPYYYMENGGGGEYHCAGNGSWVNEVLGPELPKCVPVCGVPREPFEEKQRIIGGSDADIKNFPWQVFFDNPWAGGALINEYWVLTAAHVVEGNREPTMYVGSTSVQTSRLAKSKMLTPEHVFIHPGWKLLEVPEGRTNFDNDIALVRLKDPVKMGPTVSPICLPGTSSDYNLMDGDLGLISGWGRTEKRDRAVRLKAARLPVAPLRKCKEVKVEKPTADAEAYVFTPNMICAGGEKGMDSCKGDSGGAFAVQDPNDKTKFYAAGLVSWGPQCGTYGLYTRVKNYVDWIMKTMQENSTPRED
# test: recombinant C1s enzymatic assay (YLGR-Rh110-dPro substrate hydrolysis, fluorescence)
# Assay type: biochemical
# measurement_conditions: recombinant human C1s 2.5 nM, substrate YLGR-Rh110-dPro 20 μM, 15 min pre-incubation, 60 min RT; read-out: rec. hC11s pIC50 (converted)
Counter-ions that a name gives are not always drawn.
Item-by-item account of IC50
readout_type: IC50 (nM)

compound	target_desc	meas_value
Cc1cc(-n2cccn2)c(-c2ccc3c(N)cnnc3c2)cc1B(O)O [Example 8]	human C1s protein (Homo sapiens, UniProt P09871)	14.8
COc1cnn(-c2ccc(B(O)O)cc2-c2ccc3c(N)cnnc3c2)c1 [Example 28, formic acid salt]	human C1s protein (Homo sapiens, UniProt P09871)	2.19
COc1cc(-n2nccn2)c(-c2ccc3c(N)cnnc3c2)cc1B(O)O [Example 33]	human C1s protein (Homo sapiens, UniProt P09871)	1.07
Nc1cnnc2cc(-c3cc(B(O)O)ccc3-n3ccnn3)ccc12 [Example 16]	human C1s protein (Homo sapiens, UniProt P09871)	3.98
COc1cc(-n2cc(N3CCOCC3)cn2)c(-c2ccc3c(N)cnnc3c2)cc1B(O)O [Example 58, formic acid salt]	human C1s protein (Homo sapiens, UniProt P09871)	2
Nc1cnnc2cc(-c3cc(B(O)O)ccc3-c3ncco3)ccc12 [Example 25, formic acid salt]	human C1s protein (Homo sapiens, UniProt P09871)	0.912
COc1cc(-c2c[nH]cn2)c(-c2ccc3c(N)cnnc3c2)cc1B(O)O [Example 45]	human C1s protein (Homo sapiens, UniProt P09871)	5.5
COc1cc(-n2cc(F)cn2)c(-c2ccc3c(N)cnnc3c2)cc1B(O)O [Example 40]	human C1s protein (Homo sapiens, UniProt P09871)	1.58
Cc1nc(-c2ccc(B(O)O)cc2-c2ccc3c(N)cnnc3c2)ns1 [Example 18]	human C1s protein (Homo sapiens, UniProt P09871)	1.62
COc1cc(-n2cccn2)c(-c2ccc3c(N)nccc3c2)cc1B(O)O [Example 48, formic acid salt]	human C1s protein (Homo sapiens, UniProt P09871)	3.89
Nc1cnnc2cc(-c3cc(B(O)O)c(OC(F)F)cc3-n3cccn3)ccc12 [Example 27, formic acid salt]	human C1s protein (Homo sapiens, UniProt P09871)	4.47
Nc1cnnc2cc(-c3cc(B(O)O)ccc3-n3nccn3)ccc12 [Example 15, formic acid salt]	human C1s protein (Homo sapiens, UniProt P09871)	0.933
Nc1cnnc2cc(-c3cc(B(O)O)ccc3-n3ncnn3)ccc12 [Example 12]	human C1s protein (Homo sapiens, UniProt P09871)	0.589
COc1cc(-n2cc(C(F)F)cn2)c(-c2ccc3c(N)cnnc3c2)cc1B(O)O [Example 29, formic acid salt]	human C1s protein (Homo sapiens, UniProt P09871)	0.977
COc1cc(-c2ncco2)c(-c2ccc3c(N)cnnc3c2)cc1B(O)O [Example 32, formic acid salt]	human C1s protein (Homo sapiens, UniProt P09871)	0.832
N#Cc1ccn(-c2ccc(B(O)O)cc2-c2ccc3c(N)cnnc3c2)n1 [Example 17]	human C1s protein (Homo sapiens, UniProt P09871)	6.31
COc1cnc(-c2cc(OC)c(B(O)O)cc2-c2ccc3c(N)cnnc3c2)s1 [Example 68, formic acid salt]	human C1s protein (Homo sapiens, UniProt P09871)	0.692
CNC(=O)c1cnn(-c2ccc(B(O)O)cc2-c2ccc3c(N)cnnc3c2)c1 [Example 2, formic acid salt]	human C1s protein (Homo sapiens, UniProt P09871)	3.89
CS(=O)(=O)Nc1cnn(-c2ccc(B(O)O)cc2-c2ccc3c(N)cnnc3c2)c1 [Example 21]	human C1s protein (Homo sapiens, UniProt P09871)	1.86
COc1cc(-n2cc(OC(F)F)cn2)c(-c2ccc3c(N)cnnc3c2)cc1B(O)O [Example 84, formic acid salt]	human C1s protein (Homo sapiens, UniProt P09871)	0.741
COc1cnn(-c2cc(OC)c(B(O)O)cc2-c2ccc3c(N)cnnc3c2)c1 [Example 37, formic acid salt]	human C1s protein (Homo sapiens, UniProt P09871)	0.912
